SYSTEM_NAME: K-Ras G13C (Homo sapiens (Human), UniProt P01116+P62937, G13C)
Sequence (P01116-2 other isoform, or with tags, fused parts or gaps G13C, one chain of several): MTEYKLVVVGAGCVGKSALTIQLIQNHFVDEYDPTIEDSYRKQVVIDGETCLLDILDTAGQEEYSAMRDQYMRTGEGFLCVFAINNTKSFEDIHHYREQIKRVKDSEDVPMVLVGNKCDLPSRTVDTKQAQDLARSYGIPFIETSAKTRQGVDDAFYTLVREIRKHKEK
ASSAY: Ras-Raf (BRAF RBD) disruption / FRET / MOA assay, KRAS G13C
Format: biochemical
TEST_SETTINGS: KRAS G13C; Ras-Raf disruption/FRET/MOA assay; read-out: IC50* KRAS G13C FRET data
pIC50: −log10 of the molar value.
Parameter pIC50: see the listing below.

Look up pIC50: C=CC(=O)N1CC[C@H](C(=O)N(C)[C@H](C(=O)N[C@H]2Cc3cccc(c3)-c3ccc4c(c3)c(c(-c3ccccc3[C@H](C)OC)n4CC)CC(C)(C)COC(=O)[C@@H]3CCCN(N3)C2=O)C(C)C)C1 (atropisomer, axis not shown) [Example A114] < 5.00

New cases:
Look up pIC50: C=CC(=O)Nc1cnc(C(=O)N(C)[C@H](C(=O)N[C@H]2Cc3cc(O)cc(c3)-c3ccc4c(c3)c(c(-c3cccnc3[C@H](C)OC)n4CC)CC(C)(C)COC(=O)[C@@H]3CCCN(N3)C2=O)C(C)C)n1C (atropisomer, axis not shown) [Example A255] > 8.00

* * *

SYSTEM_NAME: KRAS G12V (Homo sapiens (Human), UniProt P01116+P62937, G12V)
Sequence (P01116-2 other isoform, or with tags, fused parts or gaps G12V): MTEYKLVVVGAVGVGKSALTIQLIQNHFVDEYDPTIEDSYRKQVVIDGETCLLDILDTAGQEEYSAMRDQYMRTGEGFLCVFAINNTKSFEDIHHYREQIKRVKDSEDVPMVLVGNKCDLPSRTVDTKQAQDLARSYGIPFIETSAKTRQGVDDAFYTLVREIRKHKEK
Sequence (P62937 whole entry): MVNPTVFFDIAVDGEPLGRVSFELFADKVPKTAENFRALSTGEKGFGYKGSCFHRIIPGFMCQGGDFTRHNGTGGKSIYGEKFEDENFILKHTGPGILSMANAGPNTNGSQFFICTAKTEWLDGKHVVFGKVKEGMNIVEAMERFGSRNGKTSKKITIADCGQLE
ASSAY: Ras-Raf (BRAF RBD) disruption / FRET / MOA assay, KRAS G12V
Assay type: biochemical
TEST_SETTINGS: read-out: IC50* KRAS G12V FRET data
EXPERIMENTAL_READOUT: IC50

Tell me reported IC50 for CCn1c(-c2cccnc2[C@H](C)OC)c2c3cc(ccc31)-c1csc(n1)C[C@H](NC(=O)C[C@@H]1COC3(CN(C(=O)C#CC(C)(C)N(C)C)C3)O1)C(=O)N1CCC[C@H](N1)C(=O)OCC(C)(C)C2 (atropisomer, axis not shown) , tested with KRAS G12V (Homo sapiens (Human), UniProt P01116+P62937, G12V). 1 to 10 µM

Tell me reported IC50 for CCn1c(-c2cccnc2[C@H](C)OC)c2c3cc(ccc31)-c1cccc(c1)C[C@H](NC(=O)[C@H](C(C)C)N(C)C(=O)C1CCN(C(=O)C#C[C@@H]3CC(F)(F)CN3C)C1)C(=O)N1CCC[C@H](N1)C(=O)OCC(C)(C)C2 (some centres unmarked) , tested with KRAS G12V (Homo sapiens (Human), UniProt P01116+P62937, G12V). 1 to 10 µM

Tell me reported IC50 for C=CC(=O)N1CCC2(CCN([C@H](C(=O)N[C@H]3Cc4cc(O)cc(c4)-c4ccc5c(c4)c(c(-c4cccnc4[C@H](C)OC)n5CC)CC(C)(C)COC(=O)[C@@H]4CCCN(N4)C3=O)C(C)C)C2=O)C1 (some centres unmarked) , tested with KRAS G12V (Homo sapiens (Human), UniProt P01116+P62937, G12V). 0.01 to 0.1 µM

Tell me reported IC50 for C=CC(=O)N1CC[C@H](C(=O)N(C)[C@H](C(=O)N[C@H]2Cc3cccc(c3)-c3ccc4c(c3)c(c(-c3cc(C5CN(C)C5)cnc3[C@H](C)OC)n4CC)CC(C)(C)COC(=O)[C@@H]3CCCN(N3)C2=O)C(C)C)C1 (atropisomer, axis not shown) , tested with KRAS G12V (Homo sapiens (Human), UniProt P01116+P62937, G12V). 1 to 10 µM

Tell me reported IC50 for `CCn1c(-c2cnccc2[C@H](C)OC)c2c3cc(ccc31)-c1cccc(c1)C[C@H](NC(=O)[C@H](C(C)C)N(C)C(=O)[C@H]1CCN(C(=O)C#CCN(C)C)C1)C(=O)N1CCC[C@H](N1)C(=O)OCC(C)(C)C2` , tested with KRAS G12V (Homo sapiens (Human), UniProt P01116+P62937, G12V). 1 to 10 µM

Tell me reported IC50 for C=CS(=O)(=O)N1CCC(C(=O)N(C)[C@H](C(=O)N[C@H]2Cc3nc(cs3)-c3ccc4c(c3)c(c(-c3cncnc3)n4CC)CC(C)(C)COC(=O)[C@@H]3CCCN(N3)C2=O)C(C)C)C1 (single isomer, unassigned) , tested with KRAS G12V (Homo sapiens (Human), UniProt P01116+P62937, G12V). > 10 µM

Tell me reported IC50 for `C=CC(=O)N1CC[C@H](C(=O)N(C)[C@H](C(=O)N[C@H]2Cc3cc(O)cc(c3)-c3cc4c(c(-c5ccccc5CCOC)n(CC)c4cn3)CC(C)(C)COC(=O)[C@@H]3CCCN(N3)C2=O)C(C)C)C1` , tested with KRAS G12V (Homo sapiens (Human), UniProt P01116+P62937, G12V). > 10 µM

Tell me reported IC50 for C=CC(=O)N1CCOC2(CCN(C(=O)N(C)[C@H](C(=O)N[C@H]3Cc4cccc(n4)-c4ccc5c(c4)c(c(-c4cccnc4[C@H](C)OC)n5CC(F)(F)F)CC(C)(C)COC(=O)[C@@H]4CCCN(N4)C3=O)C(C)C)CC2)C1 (atropisomer, axis not shown) , tested with KRAS G12V (Homo sapiens (Human), UniProt P01116+P62937, G12V). 1 to 10 µM

* * *

Parameter IC50: see the listing below.
SYSTEM_NAME: K-Ras G12C (Homo sapiens (Human), UniProt P01116+P62937, G12C)
Sequence (P01116-2 other isoform, or with tags, fused parts or gaps G12C): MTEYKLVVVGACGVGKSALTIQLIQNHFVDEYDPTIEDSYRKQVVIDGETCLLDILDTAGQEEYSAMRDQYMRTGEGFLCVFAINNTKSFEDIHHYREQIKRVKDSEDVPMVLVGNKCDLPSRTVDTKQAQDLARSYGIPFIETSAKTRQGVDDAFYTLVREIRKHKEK
Sequence (P62937 whole entry): as the sequence (P62937 whole entry) above
ASSAY: Ras-Raf (BRAF RBD) disruption / FRET / MOA assay, KRAS G12C
Assay type: biochemical
TEST_SETTINGS: KRAS G12C; Ras-Raf disruption/FRET/MOA assay; read-out: IC50* KRAS G12C FRET data

Look up IC50: C=CC(=O)N1C[C@H](C)N(C(=O)N(C)[C@H](C(=O)N[C@H]2Cc3nc(cs3)-c3ccc4c(c3)c(c(-c3cccnc3[C@H](C)OC)n4CC)CC(C)(C)COC(=O)[C@@H]3CCCN(N3)C2=O)C(C)C)C[C@H]1C (atropisomer, axis not shown) 100 to 1000 nM

Next molecule, IC50 to be filled in.
Look up IC50: `CCn1c(-c2cccnc2[C@H](C)OC)c2c3cc(ccc31)N1CCO[C@@](C)(C[C@H](NC(=O)[C@H](C(C)C)N(C)C(=O)C3(F)CCN(C(=O)C#CC(C)(C)N(C)C)CC3)C(=O)N3CCC[C@H](N3)C(=O)OCC(C)(C)C2)C1` < 10 nM

* * *

SYSTEM_NAME: NRAS G12C (Homo sapiens (Human), UniProt P01111+P62937, G12C)
Sequence (P01111 whole entry G12C): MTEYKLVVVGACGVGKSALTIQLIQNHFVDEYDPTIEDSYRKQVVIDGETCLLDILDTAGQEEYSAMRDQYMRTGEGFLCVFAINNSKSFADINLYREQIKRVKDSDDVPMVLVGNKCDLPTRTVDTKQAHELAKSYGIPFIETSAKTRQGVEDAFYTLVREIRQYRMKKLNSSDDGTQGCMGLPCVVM
Sequence (P62937 whole entry): as the sequence (P62937 whole entry) above
ASSAY: Ras-Raf (BRAF RBD) disruption / FRET / MOA assay, NRAS G12C
Assay type: biochemical
TEST_SETTINGS: read-out: IC50* NRAS G12C FRET data
pIC50: −log10 of the molar value.
Parameter pIC50: see the listing below.

Use the examples below as a reference point.
Look up pIC50: C=CC(=O)N1CC[C@H](C(=O)N(C)[C@H](C(=O)N[C@H]2Cc3cccc(c3)-c3ccc4c(c3)c(c(-c3cccnc3[C@H](C)OC)n4CC)CC(C)(C)COC(=O)[C@@H]3CCCN(N3)C2=O)C2COC2)C1 (atropisomer, axis not shown) [Example A469] 6.00 to 7.00

Look up pIC50: C=CC(=O)N1CC2(COCCN2C(=O)N(C)[C@H](C(=O)N[C@H]2Cc3nc(cs3)-c3ccc4c(c3)c(c(-c3cccnc3[C@H](C)OC)n4CC)CC(C)(C)COC(=O)[C@@H]3CCCN(N3)C2=O)C(C)C)C1 (atropisomer, axis not shown) [Example A352] 7.00 to 8.00

Look up pIC50: C=CC(=O)N1CC[C@@]2(C1)OCN([C@H](C(=O)N[C@H]1Cc3cccc(c3)-c3ccc4c(c3)c(c(-c3cccnc3[C@H](C)OC)n4CC)CC(C)(C)COC(=O)[C@@H]3CCCN(N3)C1=O)C(C)C)C2=O (atropisomer, axis not shown) [Example A358] 6.00 to 7.00

Look up pIC50: C=CC(=O)N(C)[C@H](C(=O)N[C@H]1Cc2cc(O)cc(c2)-c2ccc3c(c2)c(c(-c2cccnc2COC)n3CC)CC(C)(C)COC(=O)[C@@H]2CCCN(N2)C1=O)C(C)C [Example A110] 5.00 to 6.00

Look up pIC50: C=CC(=O)N(C)C1CN(C(=O)N(C)[C@H](C(=O)N[C@H]2Cc3nc(cs3)-c3ccc4c(c3)c(c(-c3cccnc3[C@H](C)OC)n4CC)CC(C)(C)COC(=O)[C@@H]3CCCN(N3)C2=O)C(C)C)C1 (atropisomer, axis not shown) [Example A463] 7.00 to 8.00

Look up pIC50: C=CC(=O)N1CC[C@H](C(=O)N(C)[C@H](C(=O)N[C@H]2Cc3cc(O)cc(c3)-c3ccc4c(c3)c(c(-c3csc(N(C)C)n3)n4CC)CC(C)(C)COC(=O)[C@@H]3CCCN(N3)C2=O)C(C)C)C1 [Example A303] 5.00 to 6.00

Look up pIC50: CCn1c(-c2cccnc2[C@H](C)OC)c2c3cc(ccc31)-c1csc(n1)C[C@H](NC(=O)CN1CC[C@@]3(CCN(C(=O)C#CC(C)(C)N4CCC4)C3)C1)C(=O)N1CCC[C@H](N1)C(=O)OCC(C)(C)C2 (atropisomer, axis not shown) [Example A364] 6.00 to 7.00

Look up pIC50: C=CC(=O)N1C[C@@H]2CN(C(=O)N(C)[C@H](C(=O)N[C@H]3Cc4nc(cs4)-c4ccc5c(c4)c(c(-c4cccnc4[C@H](C)OC)n5CC)CC(C)(C)COC(=O)[C@@H]4CCCN(N4)C3=O)C(C)C)C[C@@H]2C1 (atropisomer, axis not shown) [Example A389] 7.00 to 8.00

Look up pIC50: C=CC(=O)N1CC(OCC(C(=O)N[C@H]2Cc3cc(cc(C(F)F)c3)-c3ccc4c(c3)c(c(-c3cccnc3[C@H](C)OC)n4CC(F)(F)F)CC(C)(C)COC(=O)[C@@H]3CCCN(N3)C2=O)C(C)C)C1 (mixture of isomers) [Example A428] < 5.00

Look up pIC50: C=CC(=O)N1CCC12CCN(C(=O)N(C)[C@H](C(=O)N[C@H]1Cc3nc(cs3)-c3ccc4c(c3)c(c(-c3cccnc3[C@H](C)OC)n4CC)CC(C)(C)COC(=O)[C@@H]3CCCN(N3)C1=O)C(C)C)CC2 (atropisomer, axis not shown) [Example A415] 6.00 to 7.00

New cases:
Look up pIC50: C=CC(=O)N1CC[C@H](C(=O)N(C)[C@H](C(=O)N[C@H]2Cc3cccc(c3)-c3ccc4c(c3)c(c(-c3cc(C5CN(C)C5)cnc3[C@H](C)OC)n4CC)CC(C)(C)COC(=O)[C@@H]3CCCN(N3)C2=O)C(C)C)C1 (atropisomer, axis not shown) [Example A392] 6.00 to 7.00

Look up pIC50: CO[C@@H](C)c1ncccc1-c1c2c3cc(ccc3n1CC(F)(F)F)-c1csc(n1)C[C@H](NC(=O)[C@H](C(C)C)N(C)C(=O)N1C[C@@H]3OCCN(C(=O)/C=C/CF)[C@@H]3C1)C(=O)N1CCC[C@H](N1)C(=O)OCC(C)(C)C2 (atropisomer, axis not shown) [Example A571] 6.00 to 7.00

Look up pIC50: C=CC(=O)N1CCC(C(=O)N(C)[C@H](C(=O)N[C@H]2Cc3cc(CF)cc(c3)-c3ccc4c(c3)c(c(-c3cccnc3[C@H](C)OC)n4CC(F)(F)F)CC(C)(C)COC(=O)[C@@H]3CCCN(N3)C2=O)C(C)C)C1 (stereo partly drawn) [Example A659] 7.00 to 8.00

Look up pIC50: CCn1c(-c2cccnc2[C@H](C)OC)c2c3cc(ccc31)-c1cc(CF)cc(c1)C[C@H](NC(=O)[C@H](C(C)C)N1CC[C@]3(CCN(C(=O)C#CC(C)(C)N(C)C)C3)C1=O)C(=O)N1CCC[C@H](N1)C(=O)OCC(C)(C)C2 (atropisomer, axis not shown) [Example A673] > 8.00

Look up pIC50: CCn1c(-c2cccnc2[C@H](C)OC)c2c3cc(ccc31)-c1csc(n1)C[C@H](NC(=O)[C@H](C(C)C)N1CCC3(CN(C(=O)C#CC(C)(C)N(C)C)C3)C1=O)C(=O)N1CCC[C@H](N1)C(=O)OCC(C)(C)C2 (atropisomer, axis not shown) [Example A323] > 8.00
